Tested on: phorbol 12-myristate 13-acetate (PMA) induced ear edema
Assay: Mouse ear anti-inflammatory assay
Format: in vivo
Details: potency estimate relative to Pseudopterosin E (historical ED50 40 μg/ear)
Reported Relative Potency, Pseudopterosin E values are given for each entry in this list.
parameter: Relative Potency, Pseudopterosin E (%)

> print(dat)
                                   compound  output.unit  data.value
1  CC(=O)OC1C(Oc2c(C)c3c4c(c2O)[C@@H](C)CC[C@@H]4[C@@H](C)CC3C=C(C)C)OCC(O)C1O (stereo partly shown) [Compound 1]            %         324
2  CC(=O)OC1COC(Oc2c(C)c3c4c(c2O)[C@@H](C)CC[C@@H]4[C@@H](C)CC3C=C(C)C)C(O)C1O (stereo partly shown) [Compound 3]            %         337
3  CC(=O)OC1C(O)C(C)OC(Oc2c(C)cc3c(c2O)[C@@H](C)CC[C@@H]3[C@@H](C)CCC=C(C)C)C1O (stereo partly shown) [Compound 5]            %         288
4  CC(=O)OC1C(C)OC(Oc2c(C)cc3c(c2O)[C@@H](C)CC[C@@H]3[C@@H](C)CCC=C(C)C)C(O)C1O (stereo partly shown) [Compound 6]            %         410

// data source = patent US7060686B2
